# Tested on: CP305
# assay_notes: qHTS profiling for inhibitors of Plasmodium falciparum proliferation (AID 504749); also: nearly all actives have a fitted effect of over 60% in size
# measurement_conditions: P. falciparum in erythrocytes, SYBR Green DNA, 72 h; series mostly up to 28.7 µM
Inconclusive results are not listed. Activity calls are given as the source filed them. Calls follow the shape of the dose curve; as a rule, active = well fitted inhibition curve with a large enough effect; inconclusive = small, poorly fitted or top-dose-only effect; inactive = flat fitted curve, though single readings scatter.
Field 'call' accepts active, inactive

Recorded results for 8 compounds are shown here.
# compound, test_system, label_value
rows = [
    ("CCN(CC)CCOc1ccccc1OC", "CP305", "inactive"),
    ("CC(C)=CCC/C(C)=C/C=C/C(C)=C/C=C/C(C)=C/C=C/C=C(C)/C=C/C=C(C)/C=C/C=C(\\C)CCC=C(C)C", "CP305", "inactive"),
    ("COC(=O)CCC[N+](C)(C)C", "CP305", "inactive"),
    ("CC(C)c1nc(N(C)S(C)(=O)=O)nc(-c2ccc(F)cc2)c1/C=C/C(O)CC(O)CC(=O)O (stereo not drawn)", "CP305", "inactive"),
    ("Cc1ccccn1", "CP305", "inactive"),
    ("COc1ccc2c(c1)OC(C)(C)C(c1ccccc1)C2c1ccc(OCCN2CCCC2)cc1 (stereo not drawn)", "CP305", "active"),
    ("Cc1cc2nc3c(=O)[nH]c(=O)nc-3n(C[C@H](O)[C@H](O)[C@H](O)COP(=O)(O)OP(=O)(O)OC[C@H]3O[C@@H](n4cnc5c(N)ncnc54)[C@H](O)[C@@H]3O)c2cc1C", "CP305", "inactive"),
    ("[O]=[Bi][O][Bi]=[O]", "CP305", "inactive"),
]

Could you kindly confirm the outcome this assay logged for Cc1ccc(S(=O)(=O)O)cc1C ? inactive

Could you kindly confirm the outcome this assay logged for O=C(O)/C=C/c1ccccc1 ? inactive

Could you kindly confirm the outcome this assay logged for O=C(O)CCC/C=C\C[C@@H]1[C@@H](/C=C/[C@@H](O)COc2cccc(Cl)c2)[C@H](O)C[C@@H]1O ? inactive

Could you kindly confirm the outcome this assay logged for CN(CCO)CC(O)Cn1cnc2c1c(=O)n(C)c(=O)n2C (stereo not drawn) (tested in a mixture with another compound) ? inactive

Could you kindly confirm the outcome this assay logged for CC(C)O ? inactive

###

# Test system: DIV17
# assay_notes: qHTS profiling for inhibitors of Plasmodium falciparum proliferation (AID 504749); also: nearly all actives have a fitted effect of over 60% in size
# measurement_conditions: P. falciparum in erythrocytes, SYBR Green DNA, 72 h; series mostly up to 28.7 µM
Records with an inconclusive call do not appear. The source made the active and inactive calls. Calls come from the whole dose curve; as a rule, active = well fitted inhibition curve with a large enough effect; inconclusive = small, poorly fitted or top-dose-only effect; inactive = flat fitted curve, though single readings scatter.
Field 'call' accepts active, inactive

# molecule, label_value
records = [
    ("CCC(Cc1c(I)cc(I)c(O)c1I)C(=O)O (configuration not stated)", "inactive"),
    ("COc1ccc(/C=N/NC(=O)c2ccncc2)c(C(=O)O)c1OC", "inactive"),
]

Could you kindly confirm the outcome this assay logged for NC(=S)NS(=O)(=O)c1ccc(N)cc1 ? inactive

###

# Tested on: TAB109
# assay_notes: qHTS profiling for inhibitors of Plasmodium falciparum proliferation (AID 504749); also: nearly all actives have a fitted effect of over 60% in size
# measurement_conditions: P. falciparum in erythrocytes, SYBR Green DNA, 72 h; series mostly up to 28.7 µM
Inconclusive results are not listed. Calls of active or inactive are those of the source. Calls come from the whole dose curve; as a rule, active = well fitted inhibition curve with a large enough effect; inconclusive = small, poorly fitted or top-dose-only effect; inactive = flat fitted curve, though single readings scatter.
Field 'call' accepts 1.0 for active, 0.0 for inactive

Recorded results for 5 compounds are shown here.
# compound, label_value
data = [
    ("CCC(C(=O)NC(N)=O)c1ccccc1 (stereo not given)", 0.0),
    ("O=C(Nc1ccc(O)cc1)c1ccccc1O", 0.0),
    ("CC(=O)N=c1sc(S(N)(=O)=O)nn1C", 0.0),
    ("CCOC(=O)c1c[nH]c2cc(OCC(C)C)c(OCC(C)C)cc2c1=O", 1.0),
    ("CC(=O)[O][Al][O]C(C)=O", 0.0),
]

Could you kindly confirm the outcome this assay logged for OC1OC[C@@H](O)[C@H](O)[C@@H]1O (stereo not given in full) ? 0.0

Could you kindly confirm the outcome this assay logged for CCN(CC)CCOC(=O)c1cccnc1 ? 0.0

Could you kindly confirm the outcome this assay logged for N=C(N)c1ccc(/C=C/c2ccc(C(=N)N)cc2O)cc1 ? 1.0

###

# Tested on: CP305
# assay_notes: qHTS profiling for inhibitors of Plasmodium falciparum proliferation (AID 504749); also: nearly all actives have a fitted effect of over 60% in size
# measurement_conditions: P. falciparum in erythrocytes, SYBR Green DNA, 72 h; series mostly up to 28.7 µM
Inconclusive results are not listed. Active and inactive are the calls of the source. Calls follow the shape of the dose curve; as a rule, active = well fitted inhibition curve with a large enough effect; inconclusive = small, poorly fitted or top-dose-only effect; inactive = flat fitted curve, though single readings scatter.
Field 'call' accepts TRUE (active), FALSE (inactive)

Could you kindly confirm the outcome this assay logged for F[Si-2](F)(F)(F)(F)F ? FALSE

###

# assay_notes: Drug repurposing screens with cells derived from glioblastoma tumor samples (AID 1345199); also: % is scaled to controls: 0 for no effect and ±100 for the full control effect; nearly all actives have a fitted effect of over 40% in size
# measurement_conditions: GBM patient neurospheres viability, ATP luminescence, 48 h; at 20 µM (top of the series); tumour line C
Results filed as inconclusive are left out. Where a SMILES comes first, the peptide text is derived from it. Bridges are numbered along the chain shown (N, C = ends). [ ]: non-standard residue; d: D form. The star is where a group is joined. X1 = CC[C@@H](C)[C@@H](N)C1=N[C@H](C(=O)*)CS1; d(aIle) = CC[C@H](C)[C@@H](N)C(=O)O; dOrn = NCCC[C@@H](N)C(=O)O
measurement_kind: activity, negative = cell killing (%)
State the answer as a number, implicitly in %.

# molecule, activity, negative = cell killing [%]
measured = [
    ("O=C(O)Cc1cc(I)c(Oc2ccc(O)c(I)c2)c(I)c1", -19.1),
]

Give the measured activity, negative = cell killing of CC(=O)[C@H]1CC[C@H]2[C@@H]3C=CC4=CC(=O)CC[C@@]4(C)[C@H]3CC[C@]12C . -18.4

Give the measured activity, negative = cell killing of CN1CCN(C(c2ccccc2)c2ccc(Cl)cc2)CC1 (stereo unspecified) . 3.89

Give the measured activity, negative = cell killing of NC(N)=NCC1COC2(CCCCC2)O1 (stereo unspecified) . -12.8

Give the measured activity, negative = cell killing of C=C1c2c(Cl)ccc(O)c2C(O)=C2C(=O)[C@]3(O)C(O)=C(C(N)=O)C(=O)[C@@H](N(C)C)[C@@H]3[C@@H](O)[C@H]12 . 3.1

Give the measured activity, negative = cell killing of CC[C@@H](C)[C@@H](N)C1=N[C@H](C(=O)N[C@@H](CC(C)C)C(=O)N[C@@H](CCC(=O)O)C(=O)N[C@@H](C(=O)N[C@@H]2CCCCNC(=O)[C@@H](CC(N)=O)NC(=O)[C@@H](CC(=O)O)NC(=O)[C@@H](Cc3cnc[nH]3)NC(=O)[C@@H](Cc3ccccc3)NC(=O)[C@@H]([C@H](C)CC)NC(=O)[C@@H](CCCN)NC2=O)[C@@H](C)CC)CS1 (X1-LE[d(aIle)][dK][dOrn][dI][dF][dH][dD][dN]; lactam 4-C) . 4.06

###

# assay_notes: S16 Schwann cell PMP22 intronic element firefly luciferase assay (AID 624032); also: nearly all actives have a fitted effect of over 30% in size
# measurement_conditions: S16 rat Schwann cells, PMP22 element FLuc, 24 h; series mostly up to 57.5 µM
Records with an inconclusive call do not appear. Activity calls are given as the source filed them. Calls come from the whole dose curve; as a rule, active = well fitted inhibition curve with a large enough effect; inconclusive = small, poorly fitted or top-dose-only effect; inactive = no such curve, though single readings can be large or run the other way.
Field 'call' accepts yes = active, no = inactive

# molecule, label_value
rows = [
    ("Cc1cccc(C)c1NC(=O)C1CCCCN1C (stereo not drawn)", "no"),
]

Could you kindly confirm the outcome this assay logged for O=C(Nc1ccc(O)cc1)c1ccccc1O ? no

Could you kindly confirm the outcome this assay logged for CN(C)CCCSc1ccccc1NC(=O)/C=C/c1ccccc1 ? no

Could you kindly confirm the outcome this assay logged for OC/C=C/c1ccccc1 ? no

Could you kindly confirm the outcome this assay logged for CCSc1ccc2c(c1)N(CCCN1CCN(C)CC1)c1ccccc1S2 ? no

Could you kindly confirm the outcome this assay logged for CCCCCCCCCCCCCCCCCCCCCC(=O)Nc1ccn([C@@H]2O[C@H](CO)[C@@H](O)[C@@H]2O)c(=O)n1 ? no

Could you kindly confirm the outcome this assay logged for Oc1cc(O)cc(O)c1 ? no

Could you kindly confirm the outcome this assay logged for C=CCOc1ccc(CC(=O)O)cc1Cl ? no

Could you kindly confirm the outcome this assay logged for C[C@H](CCC(=O)O)[C@H]1CC[C@H]2[C@@H]3CC[C@@H]4C[C@H](O)CC[C@]4(C)[C@H]3C[C@H](O)[C@]12C ? no

Could you kindly confirm the outcome this assay logged for Cc1cccc(C)c1NC(=O)NC1=CCCN1C ? no

Could you kindly confirm the outcome this assay logged for COc1cc(C)c(/C=C/C(C)=C/C=C/C(C)=C/C(=O)O)c(C)c1C ? yes

Could you kindly confirm the outcome this assay logged for CC(C)=CCC/C(C)=C/C=C/C(C)=C/C=C/C(C)=C/C=C/C=C(C)/C=C/C=C(C)/C=C/C=C(\C)CCC=C(C)C ? no

Could you kindly confirm the outcome this assay logged for O=C(OCc1ccccc1)c1ccc(O)cc1 ? no

Could you kindly confirm the outcome this assay logged for CN(C)CCC=C1c2ccccc2C(C)(C)c2ccccc21 ? no

Could you kindly confirm the outcome this assay logged for ClC(Cl)Cl ? no

Could you kindly confirm the outcome this assay logged for CC1=CCC2CC1C2(C)C (stereo not drawn) ? no
